test: Oral pharmacokinetic absorption study in BALB/c mice (plasma, LC-MS/MS); assay type: in vivo; conditions: both sexes, mouse; analyte L-BHDU in plasma; 11.4 mg/kg L-BHDU oral, BALB/c mice
value.type: Tmax at 2 h (h)
Your answer should be a plain number; it is taken to be in h.

Entry O=c1[nH]c(=O)n([C@@H]2CO[C@H](CO)O2)cc1/C=C/Br [L-BHDU (1)] ; Tmax at 2 h = 2

====

tested on: VZV-ORF57-Luc; conditions: selectivity index = CC50/EC50, ARPE-19 cells
value.type: SI (CC50/EC50)

compound | SI (CC50/EC50)
Cl.N[C@@H](Cc1c[nH]c2ccccc12)C(=O)OC[C@H]1OC[C@@H](n2cc(/C=C/Br)c(=O)[nH]c2=O)O1 | >1550

Value of measured SI (CC50/EC50) for the entry CC(C)[C@H](N)C(=O)OC[C@H]1OC[C@@H](n2cc(/C=C/Br)c(=O)[nH]c2=O)O1.Cl [L-BHDU-D-valine (18), L-BHDU-5′-O-D-valyl Ester Hydrochloride] : >709

====

assay: in vitro; conditions: human
value.type: CC50 at 72 h

Quick note, CC50 at 72 h for CC(C)OC(=O)C(Cc1ccccc1)NP(=O)(OC[C@H]1OC[C@@H](n2cc(/C=C/Br)c(=O)[nH]c2=O)O1)Oc1ccccc1 (stereo in doubt) landed at 93.7 µM

====

// VZV-ORF57-Luc SI (CC50/EC50) records

Answered cases to consult:
compound | SI (CC50/EC50)
CC(C)(C)OC(=O)N[C@@H](Cc1ccc(O)cc1)C(=O)O | >2481
CC(C)OC(=O)C(C)NP(=O)(OC[C@H]1OC[C@@H](n2cc(/C=C/Br)c(=O)[nH]c2=O)O1)Oc1ccccc1 (stereo in doubt) | >206
CC(C)[C@H](N)C(=O)OC[C@H]1OC[C@@H](n2cc(/C=C/Br)c(=O)[nH]c2=O)O1.Cl [L-BHDU-D-valine (18), L-BHDU-5′-O-D-valyl Ester Hydrochloride] | >709

The measured SI (CC50/EC50) that "O=c1[nH]c(=O)n([C@@H]2CO[C@H](CO)O2)cc1/C=C/Br" showed for VZV-ORF57-Luc is >3878

Record CC(C)OC(=O)C(Cc1ccccc1)NP(=O)(OC[C@H]1OC[C@@H](n2cc(/C=C/Br)c(=O)[nH]c2=O)O1)Oc1ccccc1 (stereo in doubt) / VZV-ORF57-Luc, SI (CC50/EC50) recorded as 61

Assay VZV-ORF57-Luc, sample Cl.NCC(=O)OC[C@H]1OC[C@@H](n2cc(/C=C/Br)c(=O)[nH]c2=O)O1 [L-BHDU-glycine (14), L-BHDU-5′-O-glycyl Ester Hydrochloride] , SI (CC50/EC50) read: >2132

The measured SI (CC50/EC50) that CC(C)(C)C(=O)OCOP(=O)(OCOC(=O)C(C)(C)C)OC[C@H]1OC[C@@H](n2cc(/C=C/Br)c(=O)[nH]c2=O)O1 [POM-L-BHDU-MP (41), Bis(POM) Prodrug of L-BHDU-MP] showed for VZV-ORF57-Luc is >2809

Readout SI (CC50/EC50) for "Cl.O=C(OC[C@H]1OC[C@@H](n2cc(/C=C/Br)c(=O)[nH]c2=O)O1)[C@@H]1CCCN1" , test system VZV-ORF57-Luc, was >1934

====

assay: Oral pharmacokinetic absorption study in BALB/c mice (plasma, LC-MS/MS); format: in vivo; conditions: both sexes, mouse; analyte L-BHDU in plasma; 11.4 mg/kg L-BHDU oral, BALB/c mice
value.type: Cmax at 2 h (ng/mL)
The answer is to be given in ng/mL; state only the numeric part.

The compound identified as O=c1[nH]c(=O)n([C@@H]2CO[C@H](CO)O2)cc1/C=C/Br [L-BHDU (1)] registered its Cmax at 2 h at 7100

====

test: in vitro; conditions: human
value.type: CC50

Consider CC(C)OC(=O)C(C)NP(=O)(OC[C@H]1OC[C@@H](n2cc(/C=C/Br)c(=O)[nH]c2=O)O1)Oc1ccccc1 (stereo in doubt) . Its measured CC50 is > 100 µM

====

system: VZV-ORF57-Luc; settings: selectivity index = CC50/EC50, ARPE-19 cells
Listing of recorded SI (CC50/EC50) by entry.

So the reported SI (CC50/EC50) for C[C@@H](N)C(=O)OC[C@H]1OC[C@@H](n2cc(/C=C/Br)c(=O)[nH]c2=O)O1.Cl [L-BHDU-L-alanine (15), L-BHDU-5′-O-L-alanyl Ester Hydrochloride] , on VZV-ORF57-Luc, turned out to be >2959

VZV-ORF57-Luc data for CC(C)(N)C(=O)OC[C@H]1OC[C@@H](n2cc(/C=C/Br)c(=O)[nH]c2=O)O1.Cl [L-BHDU-2-aminoisobutyric acid (24)] ; its SI (CC50/EC50): >2597

The measured SI (CC50/EC50) that CC(C)(C)C(=O)OCOP(=O)(OCOC(=O)C(C)(C)C)OC[C@H]1OC[C@@H](n2cc(/C=C/Br)c(=O)[nH]c2=O)O1 [POM-L-BHDU-MP (41), Bis(POM) Prodrug of L-BHDU-MP] showed for VZV-ORF57-Luc is >2809

SI (CC50/EC50) for VZV-ORF57-Luc with input Cl.O=C(OC[C@H]1OC[C@@H](n2cc(/C=C/Br)c(=O)[nH]c2=O)O1)[C@@H]1CCCN1 [L-BHDU-L-proline (22)] equals >1934

Known value: VZV-ORF57-Luc SI (CC50/EC50) of the compound CC[C@H](C)[C@H](N)C(=O)OC[C@H]1OC[C@@H](n2cc(/C=C/Br)c(=O)[nH]c2=O)O1.Cl [L-BHDU-L-isoleucine (21)] equals >1520

So the reported SI (CC50/EC50) for Nc1ccn(C[C@@H](CO)OCP(=O)(O)O)c(=O)n1 [cidofovir (CDV), cidofovir, reference compound] , on VZV-ORF57-Luc, turned out to be >208

====

test system: VZV-ORF57-Luc; conditions: selectivity index = CC50/EC50, ARPE-19 cells
value.type: SI (CC50/EC50)

Known SI (CC50/EC50) results, listed for orientation:
compound | SI (CC50/EC50)
Cl.N[C@H](Cc1ccccc1)C(=O)OC[C@H]1OC[C@@H](n2cc(/C=C/Br)c(=O)[nH]c2=O)O1 [L-BHDU-L-phenylalanine (16)] | >3484
O=c1[nH]c(=O)n([C@@H]2CO[C@H](CO)O2)cc1/C=C/Br [L-BHDU (1)] | >3878
Cl.NC(=O)CC[C@H](N)C(=O)OC[C@H]1OC[C@@H](n2cc(/C=C/Br)c(=O)[nH]c2=O)O1 [L-BHDU-L-glutamine (23)] | >794

Now consider the entry below.
Looking up CC(C)C[C@H](N)C(=O)OC[C@H]1OC[C@@H](n2cc(/C=C/Br)c(=O)[nH]c2=O)O1.Cl [L-BHDU-L-leucine (20)] , I found its SI (CC50/EC50) recorded as >2415

====

Parameter SI (CC50/EC50), tested on VZV-ORF57-Luc, listed per item.

molecule | value.type | experimental.result
Cl.N[C@@H](Cc1c[nH]c2ccccc12)C(=O)OC[C@H]1OC[C@@H](n2cc(/C=C/Br)c(=O)[nH]c2=O)O1 | SI (CC50/EC50) | >1550
CC[C@H](C)[C@H](N)C(=O)OC[C@H]1OC[C@@H](n2cc(/C=C/Br)c(=O)[nH]c2=O)O1.Cl | SI (CC50/EC50) | >1520
CC(C)[C@@H](N)C(=O)OC[C@H]1OC[C@@H](n2cc(/C=C/Br)c(=O)[nH]c2=O)O1.Cl [L-BHDU-L-valine (17), L-BHDU-5′-O-L-valyl Ester Hydrochloride] | SI (CC50/EC50) | >3322
Cl.NC(=O)CC[C@H](N)C(=O)OC[C@H]1OC[C@@H](n2cc(/C=C/Br)c(=O)[nH]c2=O)O1 | SI (CC50/EC50) | >794
Cl.N[C@@H](Cc1ccc(O)cc1)C(=O)OC[C@H]1OC[C@@H](n2cc(/C=C/Br)c(=O)[nH]c2=O)O1 | SI (CC50/EC50) | >826
C[C@@H](N)C(=O)OC[C@H]1OC[C@@H](n2cc(/C=C/Br)c(=O)[nH]c2=O)O1.Cl [L-BHDU-L-alanine (15), L-BHDU-5′-O-L-alanyl Ester Hydrochloride] | SI (CC50/EC50) | >2959
Cl.N[C@H](Cc1ccccc1)C(=O)OC[C@H]1OC[C@@H](n2cc(/C=C/Br)c(=O)[nH]c2=O)O1 | SI (CC50/EC50) | >3484
CC(C)(N)C(=O)OC[C@H]1OC[C@@H](n2cc(/C=C/Br)c(=O)[nH]c2=O)O1.Cl | SI (CC50/EC50) | >2597

// next entry
molecule "CC(C)C[C@H](N)C(=O)OC[C@H]1OC[C@@H](n2cc(/C=C/Br)c(=O)[nH]c2=O)O1.Cl" , SI (CC50/EC50) observed: >2415
